protein stability index by entry:
B1: RHOBTB1 (parent)
chain: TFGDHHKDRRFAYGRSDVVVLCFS

Variants of: B1
Assay: protein stability index of a GFP-peptide fusion (GPS, HEK-293T) (PSI 1-6); higher = more stable;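 further: lentivirally expressed fusions sorted by FACS into six bins by GFP to DsRed ratio, PSI derived from sequencing read proportions per bin multiplied by bin number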
Settings: c terminus: a fixed tail appended
Property name: protein stability index

> print(dat)
    mutant.designation            property.name  recorded.result
 1                 R9P  protein stability index                3
 2                 F2D  protein stability index             2.19
 3                 R9N  protein stability index             2.58
 4                S24Y  protein stability index             4.57
 5                D17W  protein stability index             2.78
 6                F11N  protein stability index             2.49
 7                S16K  protein stability index             2.43
 8                L21D  protein stability index             2.68
 9                V18Y  protein stability index              2.2
10                Y13P  protein stability index             1.04
11                G14N  protein stability index             2.25
12                 H6K  protein stability index             2.33
13                Y13M  protein stability index             1.55
14                Y13H  protein stability index             2.49
15                C22A  protein stability index             1.72
16                V18I  protein stability index             1.42
17                F11W  protein stability index             2.28
18                F23H  protein stability index              2.6
19                V18W  protein stability index             2.21
20                 D8S  protein stability index             2.76
21                R15Q  protein stability index             2.66
22                A12H  protein stability index             3.79
23                R15E  protein stability index             1.75
24                 D4T  protein stability index             2.54
25                S16L  protein stability index             2.15
26                S16Y  protein stability index             1.23
27                 F2H  protein stability index             1.85
28                G14R  protein stability index             2.76
29                C22K  protein stability index             2.17
30                D17N  protein stability index             2.23
31                V20N  protein stability index             2.56
32                Y13E  protein stability index             1.93
33                R15L  protein stability index             2.23
34                V19S  protein stability index             1.87
35                V18D  protein stability index             2.03
36                F23W  protein stability index             1.81
37                R10P  protein stability index             3.19
38                Y13T  protein stability index             1.62
39                 F2A  protein stability index             1.63
40                 D4H  protein stability index             1.51
41                V20S  protein stability index             1.95
42                 F2E  protein stability index             1.31
43                L21I  protein stability index             1.49
44                F11E  protein stability index             1.49
45                 G3W  protein stability index             2.33
46                 K7S  protein stability index             3.12
47                 D8P  protein stability index             2.77
48                R15A  protein stability index             2.04
49                 F2I  protein stability index             2.17
50                S24C  protein stability index             3.85
51                V19C  protein stability index             1.26
52                V19T  protein stability index             2.68
53                D17K  protein stability index             1.63
54                 R9I  protein stability index             3.77
55                 H5F  protein stability index             2.45
56                L21Q  protein stability index              2.4
57                A12C  protein stability index             2.93
58                F23I  protein stability index             1.41
59                R15T  protein stability index             2.11
60                V18E  protein stability index             2.19
61                V18K  protein stability index             3.01
62                 F2K  protein stability index             2.65
63                V20L  protein stability index             2.42
64                 D8W  protein stability index             3.29
65                G14F  protein stability index             3.41
66                S16E  protein stability index             2.07
67                V18R  protein stability index             2.92
68                 F2S  protein stability index             1.02
69                V20A  protein stability index             3.28
70                V19Q  protein stability index             1.52
71                 R9L  protein stability index             2.66
72                F23G  protein stability index             2.47
73                 R9S  protein stability index             1.86
74                S16H  protein stability index             2.91
75                 D4K  protein stability index             2.06
